Target: T1, Human TIGIT protein with HIS tag (human, UniProt Q495A1 22-141)
T1 construct: A soluble analyte is probably only the extracellular part; also called human TIGIT recombinant protein; not shown: HIS tag
T1 sequence: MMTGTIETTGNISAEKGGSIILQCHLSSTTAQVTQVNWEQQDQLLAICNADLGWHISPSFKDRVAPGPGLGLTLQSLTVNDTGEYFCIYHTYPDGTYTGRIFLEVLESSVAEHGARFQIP
Assay: SPR Biacore T200; antibody Fc-captured, TIGIT-His analyte
MEASUREMENT_LABEL: pKd
Lab note — pKd values are minus log10 of concentrations in M.

Reported pKd for 64G1E9B4 chimeric (antibody, V domains shown, also called 64G1 Chimeric) VH: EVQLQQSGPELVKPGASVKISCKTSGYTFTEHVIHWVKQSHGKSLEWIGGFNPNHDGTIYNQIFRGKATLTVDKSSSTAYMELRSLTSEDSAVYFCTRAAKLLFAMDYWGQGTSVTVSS VL: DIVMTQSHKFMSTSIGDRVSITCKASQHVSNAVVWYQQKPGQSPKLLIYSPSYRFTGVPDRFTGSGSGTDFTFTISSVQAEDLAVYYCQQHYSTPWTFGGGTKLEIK was 10.15

Reported pKd for 100C4E7D11VH1_VL1 (antibody, V domains shown, Humanized antibody, variable domains fused with the constant region of human IgG1; also called 100C4VH1_VL1) VH: EVQLVESGGGLVKPGGSLRLSCAASGFTFSFYTMSWVRQAPGKGLEWVSTISSGGGSTYYSDSVKGRFTISRDNAKNSLYLQMNSLRAEDTAVYYCARSLPVDYWGQGTTVTVSS VL: EIVLTQSPGTLSLSPGERATLSCTASSSVSSTYLHWYQQKPGQAPRLLIYSTSNLASGIPDRFSGSGSGTDFTLTISRLEPEDFAVYYCHLYHHSPYTFGGGTKVEIK was 9.24

Reported pKd for 100C4E7D11 chimeric (antibody, V domains shown, also called 100C4 Chimeric) VH: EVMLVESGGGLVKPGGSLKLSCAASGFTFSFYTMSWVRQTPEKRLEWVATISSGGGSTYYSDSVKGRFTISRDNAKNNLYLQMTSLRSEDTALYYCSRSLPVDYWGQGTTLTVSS VL: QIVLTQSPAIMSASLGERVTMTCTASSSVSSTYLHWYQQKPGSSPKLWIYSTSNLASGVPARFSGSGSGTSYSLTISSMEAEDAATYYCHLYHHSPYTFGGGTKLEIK was 9.77

Query binder follows.
Reported pKd for 64G1E9B4VH1.M1_VL1.M1 (antibody, human IgG1, V domains shown, Humanized antibody, variable domains fused with the constant region of human IgG1; also called 64G1VH1.M1_VL1.M1) VH: EVQLVQSGAEVKKPGSSVKVSCKASGYTFTEHVIHWVRQAPGQGLEWMGGFNPNHGGTIYNQIFRGRVTITADKSTSTAYMELSSLRSEDTAVYYCARAAKLLFAMDYWGQGTTVTVSS VL: DIQMTQSPSSLSASVGDRVTITCRASQHVSNAVVWYQQKPGKAPKLLIYSPSYRFTGVPSRFSGSGSGTDFTLTISSLQPEDFATYYCQQHYSTPWTFGGGTKVEIK was 9.77
